- Protocol: Total clearance in juveline to adult cystic fibrosis patient
- Type: ADME, organism-based
- Condition summary: human, in vivo
Metric: clearance (mL/min)

CC(C)(O/N=C(\C(=O)N[C@@H]1C(=O)N2C(C(=O)[O-])=C(C[n+]3ccccc3)CS[C@H]12)c1csc(N)n1)C(=O)O	133

* * *

- Protocol: Total clearance in cystic fibrosis patient at 2 gram, iv administered in 5 mins infusion
- Format: ADME, organism-based
- Condition summary: human, in vivo
Metric: clearance (mL/min)

CC(C)(O/N=C(\C(=O)N[C@@H]1C(=O)N2C(C(=O)[O-])=C(C[n+]3ccccc3)CS[C@H]12)c1csc(N)n1)C(=O)O [CEFTAZIDIME]	89.5
